study_system: Lysophosphatidic acid receptor 3 (Homo sapiens)
assay_notes: Antagonist activity at human recombinant LPA3 expressed in chem-1 cells assessed as inhibition of LPA-induced intracellular calcium mobilization at 30 uM incubated for 30 mins prior to LPA-challenge measured over 100 secs by FLIPR assay
Assay type: functional, cell-based
endpoint_name: inhibition (%)

Below: 8 molecules and their reported inhibition.
>  <molecule>
CC(C)[C@@H](C)OC(=O)Nc1c(-c2ccc(-c3ccc(C4(C(=O)O)CC4)cc3)cc2)cnn1C

>  <study_system>
Lysophosphatidic acid receptor 3 (Homo sapiens)

>  <experimental_value>
9

$$$$
>  <molecule>
CC(C)[C@@H](C)OC(=O)Nc1c(-c2ccc(-c3ccc(C4(C(=O)O)CC4)cc3)cc2)nnn1C

>  <study_system>
Lysophosphatidic acid receptor 3 (Homo sapiens)

>  <experimental_value>
24

$$$$
>  <molecule>
Cc1nnn(-c2ccc(-c3ccc(C4(C(=O)O)CC4)cc3)cc2)c1NC(=O)OC(C)C1CCC1 (racemic)

>  <study_system>
Lysophosphatidic acid receptor 3 (Homo sapiens)

>  <experimental_value>
26

$$$$
>  <molecule>
CC[C@@H](C)OC(=O)Nc1c(C)nnn1-c1ccc(-c2ccc(C3(C(=O)O)CC3)cc2)cc1

>  <study_system>
Lysophosphatidic acid receptor 3 (Homo sapiens)

>  <experimental_value>
0

$$$$
>  <molecule>
C[C@@H](OC(=O)Nc1nncn1-c1ccc(-c2ccc(C3(C(=O)O)CC3)cc2)cc1)c1ccccc1

>  <study_system>
Lysophosphatidic acid receptor 3 (Homo sapiens)

>  <experimental_value>
17

$$$$
>  <molecule>
CCc1nnn(-c2ccc(-c3ccc(C4(C(=O)O)CC4)cc3)cc2)c1NC(=O)O[C@H](C)c1ccccc1

>  <study_system>
Lysophosphatidic acid receptor 3 (Homo sapiens)

>  <experimental_value>
63

$$$$
>  <molecule>
Cc1nnn(-c2ccc(-c3ccc(CC(=O)O)cc3)cc2)c1NC(=O)O[C@H](C)c1ccccc1

>  <study_system>
Lysophosphatidic acid receptor 3 (Homo sapiens)

>  <experimental_value>
3

$$$$
>  <molecule>
Cc1nnn(-c2ccc(-c3ccc(C4(C(=O)O)CC4)cc3)cc2)c1NC(=O)O[C@H](C)c1ccccc1

>  <study_system>
Lysophosphatidic acid receptor 3 (Homo sapiens)

>  <experimental_value>
20

$$$$

[P] CC[C@@H](C)OC(=O)Nc1c(-c2ccc(-c3ccc(C4(C(=O)O)CC4)cc3)cc2)cnn1C
[Q] C[C@@H](OC(=O)Nc1cnnn1-c1ccc(-c2ccc(C3(C(=O)O)CC3)cc2)cc1)c1ccccc1
[R] Cc1nnn(-c2ccc(-c3ccc(C4(C(=O)O)CC4)cc3)cc2)c1NC(=O)O[C@H](C)c1ccccc1F
[S] C[C@@H](OC(=O)Nc1nnn(C)c1-c1ccc(-c2ccc(C3(C(=O)O)CC3)cc2)cc1)c1ccccc1
[T] Cc1nnn(-c2ccc(-c3ccc(C4(C(=O)NS(C)(=O)=O)CC4)cc3)cc2)c1NC(=O)O[C@H](C)c1ccccc1
Input line: # sort list by recorded inhibition, greatest to least Output spec: labels arranged per the requested ranking.
Output line: R, Q, S, T, P
(R: 42%, Q: 23%, S: 10%, T: 7%, P: 0%)

[I] Cn1ncc(-c2ccc(-c3ccc(C4(C(=O)O)CC4)cc3)cc2)c1NC(=O)OC1COC1
[II] Cc1nnn(-c2ccc(-c3ccc(C4(C(=O)O)CC4)cc3)cc2)c1NC(=O)O[C@H](C)c1ccccc1C(F)(F)F
Input line: Just curious, which one has the larger inhibition reading, I or II ? Let me know the label of the one you choose.
Output line: II

[a] Cn1ncc(-c2ccc(-c3ccc(C4(C(=O)O)CC4)cc3)cc2)c1NC(=O)OC1CCC1
[b] Cc1nnn(-c2ccc(-c3ccc(C4(C(=O)O)CC4)cc3)cc2)c1NC(=O)OC(C)(C)C
Input line: Between item a and item b , which reported inhibition is smaller? Let me know the label of the one you choose.
Output line: b

* * *

study_system: Lysophosphatidic acid receptor 1 (Homo sapiens, UniProt Q92633)
Sequence (Q92633 whole entry): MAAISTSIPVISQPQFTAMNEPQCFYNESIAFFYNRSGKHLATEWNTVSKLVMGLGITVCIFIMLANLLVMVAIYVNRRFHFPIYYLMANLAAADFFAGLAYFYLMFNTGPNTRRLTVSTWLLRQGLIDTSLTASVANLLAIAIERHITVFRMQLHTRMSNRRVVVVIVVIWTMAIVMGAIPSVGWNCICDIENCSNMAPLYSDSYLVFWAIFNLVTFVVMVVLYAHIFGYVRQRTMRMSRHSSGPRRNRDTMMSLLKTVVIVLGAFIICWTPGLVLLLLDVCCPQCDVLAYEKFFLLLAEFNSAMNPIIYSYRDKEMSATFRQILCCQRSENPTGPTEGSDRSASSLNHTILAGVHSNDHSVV
assay_notes: Antagonist activity at human recombinant LPA1 expressed in chem-1 cells assessed as inhibition of LPA-induced intracellular calcium mobilization at 30 uM incubated for 30 mins prior to LPA-challenge measured over 100 secs by FLIPR assay
Type: functional, cell-based
endpoint_name: inhibition

Input line: Param request: inhibition | system Lysophosphatidic acid receptor 1 (Homo sapiens, UniProt Q92633) | item C[C@@H](OC(=O)Nc1c(-c2ccccc2F)cnn1C)c1ccccc1Cl
Output line: > 97%

Input line: Param request: inhibition | system Lysophosphatidic acid receptor 1 (Homo sapiens, UniProt Q92633) | item CC(OC(=O)Nc1c(-c2ccccc2)cnn1C)c1ccccc1Cl (racemic)
Output line: > 97%

Input line: Param request: inhibition | system Lysophosphatidic acid receptor 1 (Homo sapiens, UniProt Q92633) | item CC(OC(=O)Nc1c(-c2ccc(F)cc2)cnn1C)c1ccccc1Cl (racemic)
Output line: > 97%

Data origin, for the record: ChEMBL document CHEMBL2176934
